Target: V1 Receptor Subtype in Human Platelet (Homo sapiens, UniProt P37288)
Construct: tissue Hudson Valley Blood Services, Westchester Medical Center, Valhalla, N.Y
Sequence (P37288 whole entry): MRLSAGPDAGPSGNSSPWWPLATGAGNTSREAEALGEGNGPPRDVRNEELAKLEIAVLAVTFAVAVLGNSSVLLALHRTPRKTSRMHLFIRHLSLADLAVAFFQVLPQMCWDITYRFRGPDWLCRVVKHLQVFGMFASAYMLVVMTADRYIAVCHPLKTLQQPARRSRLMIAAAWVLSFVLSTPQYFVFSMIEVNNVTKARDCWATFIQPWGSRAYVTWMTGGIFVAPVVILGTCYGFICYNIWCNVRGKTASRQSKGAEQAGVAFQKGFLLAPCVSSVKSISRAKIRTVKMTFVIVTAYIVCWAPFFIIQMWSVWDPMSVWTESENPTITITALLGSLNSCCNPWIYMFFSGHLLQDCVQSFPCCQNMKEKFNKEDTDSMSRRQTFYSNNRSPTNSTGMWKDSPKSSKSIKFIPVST
Assay: Binding to Vasopressin V1 receptor subtype in Human Platelet Membranes;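 also: reported value is IC50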
Details: human platelet membranes
Entries and their measured IC50 follow.

smilesRepresentation: Cc1ccc(F)cc1C(=O)Nc1ccc(C(=O)N2Cc3ccc(CN(C)C)n3Cc3ccccc32)c(Cl)c1
IC50: 170 nM
--
smilesRepresentation: Cc1c(F)cccc1C(=O)Nc1ccc(C(=O)N2CCc3cccn3-c3ccccc32)c(Cl)c1
IC50: 500 nM
--
smilesRepresentation: O=C(Nc1ccc(C(=O)N2Cc3cccn3Cc3ccccc32)c(Cl)c1)c1ccccc1C(F)(F)F
IC50: 200 nM
--
smilesRepresentation: Cc1ccccc1C(=O)Nc1ccc(C(=O)N2Cc3ccnn3Cc3ccccc32)c(Cl)c1
IC50: 120 nM
--
smilesRepresentation: O=C(Nc1ccc(C(=O)N2Cc3ccc(Cl)n3Cc3ccccc32)cc1)c1ccc(Cl)cc1Cl
IC50: 310 nM
--
smilesRepresentation: O=C(Nc1ccc(C(=O)N2Cc3cccn3Cc3ccccc32)cc1)c1cccc2ccccc12
IC50: 220 nM
--
smilesRepresentation: Cc1cccc(C(=O)Nc2ccc(C(=O)N3Cc4cccn4Cc4ccccc43)c(Cl)c2)c1C
IC50: 430 nM
--
smilesRepresentation: Cc1ccccc1CC(=O)Nc1ccc(C(=O)N2Cc3cccn3Cc3ccccc32)c(Cl)c1
IC50: 620 nM
--
smilesRepresentation: O=C(Nc1ccc(C(=O)N2CCc3cccn3-c3ccccc32)c(Cl)c1)c1ccc(Cl)cc1Cl
IC50: 2400 nM
--
smilesRepresentation: Cc1ccc(F)cc1C(=O)Nc1ccc(C(=O)N2Cc3cccn3Cc3ccccc32)cc1Cl
IC50: 16 nM
--
smilesRepresentation: CC(C)COC(=O)Nc1ccc(C(=O)N2Cc3cccn3Cc3ccccc32)cc1
IC50: 23 nM
--
smilesRepresentation: O=C(Nc1ccc(C(=O)N2Cc3cccn3Cc3ccccc32)c(Cl)c1)c1ccccc1Cl
IC50: 50 nM
--
smilesRepresentation: COc1cc(C(=O)N2Cc3cccn3Cc3ccccc32)ccc1NC(=O)c1ccc(Cl)cc1Cl
IC50: 32 nM
--
smilesRepresentation: COc1cc(C(=O)N2Cc3cccn3Cc3ccccc32)ccc1NC(=O)c1cccc(F)c1C
IC50: 23 nM
--
smilesRepresentation: CC(=O)Oc1ccccc1C(=O)Nc1ccc(C(=O)N2Cc3cccn3Cc3ccccc32)cc1
IC50: 69 nM
--
smilesRepresentation: O=C(Nc1ccc(C(=O)N2Cc3cccn3Cc3ccccc32)cc1)c1cc([N+](=O)[O-])ccc1Cl
IC50: 540 nM
--
smilesRepresentation: COc1cc(C(=O)N2Cc3cccn3Cc3ccccc32)ccc1NC(=O)c1ccccc1C
IC50: 3 nM
--
smilesRepresentation: O=C(Nc1ccc(C(=O)N2Cc3cccn3Cc3ccccc32)c(Cl)c1)c1c(F)cccc1C(F)(F)F
IC50: 1300 nM
--
smilesRepresentation: Cc1ccccc1C(=O)Nc1ccc(C(=O)N2Cc3ccc(CN(C)C)n3Cc3ccccc32)c(Cl)c1
IC50: 71 nM
--
smilesRepresentation: O=C(Nc1ccc(C(=O)N2Cc3cccn3Cc3ccccc32)c(Cl)c1)c1c(Cl)cccc1Cl
IC50: 990 nM
--
smilesRepresentation: O=C(Nc1ccc(C(=O)N2Cc3cccn3Cc3ccccc32)c(Cl)c1)c1cccc(F)c1
IC50: 52 nM
--
smilesRepresentation: O=C(Nc1ccc(C(=O)N2Cc3cccn3Cc3ccccc32)c(Cl)c1)c1ccc(F)cc1Cl
IC50: 26 nM
--
smilesRepresentation: O=C(Nc1ccc(C(=O)N2Cc3cccn3Cc3ccccc32)c(Cl)c1)c1ccccc1F
IC50: 110 nM
--
smilesRepresentation: O=C(Nc1ccc(C(=O)N2Cc3cccn3Cc3ccccc32)cc1)c1ccc(F)cc1Cl
IC50: 7 nM
--
smilesRepresentation: Cc1ccccc1C(=O)Nc1ccc(C(=O)N2Cc3cccn3Cc3ccccc32)c(C)c1
IC50: 72 nM
--
smilesRepresentation: O=C(Nc1ccc(C(=O)N2Cc3cccn3Cc3ccccc32)c(Cl)c1)c1ccc(F)cc1C(F)(F)F
IC50: 200 nM
